Assay notes: chemical genetic growth profiling, strain panel (AID 1159580);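 further: tested at 20 µM; growth read once vehicle control cultures reached saturation at 30 °C; 1 = growth at the plate median or of vehicle wells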
Measurement setup: S. cerevisiae deletion strains, growth OD, locus YLR342W, strain FKS1 (second series)
About 2,000 (36%) of roughly 5,500 compounds were called active. Another 18% or so got no clear call; they are omitted. No stated cut-off is given here; in the data, active means normalized growth mostly below about 0.91 (no sharp cut-off); inconclusive means no clear call, values can overlap the other calls; inactive means mostly above about 0.92. The list shows a part of the results.
Tick one outcome: active, inactive

COc1c(O)cc2c(c1O)[C@H]1O[C@H](CO)[C@@H](O)[C@H](O)[C@@H]1OC2=O = inactive
CSc1nc(NC(C)C)nc(NC(C)C)n1 = inactive

Any idea what this test logged for C[C@@H]1CCC2[C@](C)(CO)[C@@H](O)CC[C@]2(C)[C@@]12CC[C@@](CO)(CCO)O2 (some centres not stated) ?
inactive

Please indicate how the test categorized CC[C@@]1(O)C(=O)OCc2c1cc1n(c2=O)Cc2cc3ccccc3nc2-1 .
active

Please let me know the test result on file for CC[C@@]1(O)C(=O)OCc2c1cc1n(c2=O)Cc2cc3cc(O)ccc3nc2-1 .
inactive

Hi, do you know how C/C=C(/C)C(=O)O[C@@H]1Cc2c(ccc3ccc(=O)oc23)OC1(C)C came out in this test?
inactive

How did this test come out for CSCCC(N)C(=O)NC(CC(C)C)C(=O)NC(Cc1ccccc1)C(=O)O (configuration not stated) ?
inactive

====

Assay notes: chemical genetic growth profiling, strain panel (AID 1159580)
Measurement setup: S. cerevisiae deletion strains, growth OD, locus YBR279W, strain paf1, hits give low values
The campaign covered roughly 5,500 compounds. About 2,000 (36%) were called active. Inconclusive results (about 18%) are left out. The list shows a part of the results.
Assay endpoint: normalized growth
A bare number is all that is needed in reply.

Below are worked cases with known answers.
NC[C@@H]1O[C@H](O[C@@H]2[C@@H](CO)OC(O[C@@H]3[C@@H](O)[C@H](N)C[C@H](N)[C@H]3O[C@H]3O[C@H](CO)[C@@H](O)[C@H](O)[C@H]3N)[C@@H]2O)[C@H](N)[C@@H](O)[C@@H]1O (stereo partly drawn) = 0.992
CC(C)=CC1C(CO)C1(C)C (stereo not drawn) = 1.02
CCn1nc(C(=O)O)c(=O)c2cc3c(cc21)OCO3 = 1
COC1=CC(C)[C@@H]2C[C@H]3OC(=O)C[C@H]4C(C)=C(OC)C(=O)C([C@@]34C)[C@@]2(C)C1=O (stereo partly drawn) = 0.985
CC(C)C[C@@H](NC(=O)OCC1c2ccccc2-c2ccccc21)C(=O)O = 0.998
NCCCN = 1

For the molecule CC1(C)S[C@@H]2[C@H](NC(=O)C(C(=O)O)c3ccccc3)C(=O)N2[C@H]1C(=O)O (stereo partly drawn) , report normalized growth.
0.985

Tell me its normalized growth given CC1(C)[C@@H]2CC[C@@]1(C)C(=O)C2 as the entry.
0.993

Check the records and state normalized growth for CCC(=O)OCC(=O)[C@@]1(OC(=O)CC)[C@@H](C)CC2C3CCC4=CC(=O)C=C[C@]4(C)C3(F)[C@@H](O)C[C@@]21C (stereo partly drawn)
1.01

Report normalized growth, nothing else, for this molecule: NC(=O)c1ccccc1O
0.997

Name the recorded normalized growth of the molecule listed here: CC(=O)O[C@@H]1CC2C(C)(CC[C@H](O)C2(C)C)C2CC[C@]3(C)C(=CC(=O)O[C@H]3c3ccoc3)C21C (stereo partly drawn)
1

Item C[C@H]1O[C@H](O[C@H]2[C@H](O)[C@@H](O)[C@@H](O[C@H]3[C@H](O)[C@@H](O)C(O)O[C@@H]3CO)O[C@@H]2CO)[C@H](O)[C@@H](O)[C@@H]1N[C@H]1C=C(CO)[C@@H](O)[C@H](O)[C@H]1O (stereo partly drawn) : provide normalized growth
1.01

Please look at this molecule and report its normalized growth: NC[C@H]1O[C@H](OC2[C@@H](N)C[C@@H](N)[C@H](O[C@H]3O[C@H](CO)[C@@H](O)[C@H](N)[C@H]3O)[C@H]2O)[C@H](O)[C@@H](O)[C@@H]1O (stereo partly drawn)
1.01

Query normalized growth for O=C(O)C1=CC(=C(c2ccc(O)c(C(=O)O)c2)c2ccc(O)c(C(=O)O)c2)C=CC1=O
0.968

Complete the entry with normalized growth for CC1(C)C(=O)CC[C@@]2(C)C1C[C@@H](O)[C@@]1(C)C3=CC(=O)O[C@@H](c4ccoc4)[C@]3(C)CCC21 (stereo partly drawn)
1.01

# return recorded normalized growth for input O=C(CCCN1CCC2(CC1)C(=O)NCN2c1ccccc1)c1ccc(F)cc1
0.983

For the molecule Cc1cc(N)c2ccccc2[n+]1CCCCCCCCCC[n+]1c(C)cc(N)c2ccccc21 , report normalized growth.
0.105

Report normalized growth for Cc1ncc(CO)c(CO)c1O
1.01

====

Assay notes: chemical genetic growth profiling, strain panel (AID 1159580)
Measurement setup: S. cerevisiae deletion strains, growth OD, locus YCL016C, strain dcc1, hits give low values
Among all 5,500 compounds or so, about 2,000 (36%) were called active. About 18% were inconclusive and are not listed. The list shows a part of the results.
This listing pairs compounds with measured normalized growth.
API note: the answer field is a bare number with no unit suffix.

COc1ccc(-c2cc(=O)c3c(O)cc(O)c(-c4cc(-c5cc(=O)c6c(O)cc(O)cc6o5)ccc4OC)c3o2)cc1 = 1
C=CCSCC=C = 0.975

Let us move to another entry and its normalized growth.
Indicate its recorded normalized growth; the compound in question is COc1cc(O)c2c(=O)cc(-c3ccc(OC)c(-c4c(O)cc(O)c5c(=O)cc(-c6ccc(O)cc6)oc45)c3)oc2c1
1

====

Quick list: normalized growth per entry.
Assay notes: chemical genetic growth profiling, strain panel (AID 1159580);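 further: tested at 20 µM; growth read once vehicle control cultures reached saturation at 30 °C; 1 = growth at the plate median or of vehicle wells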
Measurement setup: S. cerevisiae deletion strains, growth OD, locus YMR307W, strain GAS1, hits give low values
Among all 5,500 compounds or so, about 2,000 (36%) were called active. Not shown: some 18% with an inconclusive outcome. The list shows a part of the results.
Provide a numeric answer; units are not to be included.

Below, each entry is followed by its recorded normalized growth result.
O=C(O)c1cc(O)ccc1O = 1.07
C#CCOC(=O)C1=CCCN(C)C1 = 0.959
CCc1ccc2c(O)c3c(cc2c1C(=O)OC)C(=O)c1c(O)ccc(O)c1C3=O = 0.998
Cc1c(C(N)=O)cc([N+](=O)[O-])cc1[N+](=O)[O-] = 1.02
O=C(O/N=C1/CCCc2[nH]c3ccccc3c21)c1ccc(Cl)cc1Cl = 0.461

Let us move to another entry and its normalized growth.
Query normalized growth for NC(=O)c1cc([N+](=O)[O-])cc([N+](=O)[O-])c1
0.972

====

Assay notes: chemical genetic growth profiling, strain panel (AID 1159580);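 further: tested at 20 µM; growth read once vehicle control cultures reached saturation at 30 °C; 1 = growth at the plate median or of vehicle wells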
Measurement setup: S. cerevisiae deletion strains, growth OD, locus YLR113W, strain HOG1, hits give low values
The whole screen tested about 5,500 compounds, of which about 2,000 (36%) were called active. Not shown: some 18% with an inconclusive outcome. The list shows a part of the results.
Assay endpoint: normalized growth

Reference set, count: 8
Cc1ccccc1N1C(=O)c2cc(S(N)(=O)=O)c(Cl)cc2NC1C (stereo not drawn) = 0.985 (inactive)
COc1ccc(-c2cc(=O)c3c(O)cc(OC)cc3o2)cc1 = 0.905 (inactive)
CC[C@@]1(O)C(=O)OCc2c1cc1n(c2=O)Cc2cc3cc(O)ccc3nc2-1 = 0.942 (inactive)
CC(C)c1cccc(O)c(=O)c1 = 0.217 (active)
N#Cc1nccnc1N1CCN(C(=O)Nc2cc(Cl)cc(Cl)c2)CC1 = 0.892 (inactive)
CC[C@@]1(O)C(=O)OCc2c1cc1n(c2=O)Cc2cc3ccccc3nc2-1 = 0.711 (active)
COC(=O)C[C@H]1C(C)(C)[C@@H](O)[C@@H]2CC3=C4CC(O)O[C@@H](c5ccoc5)[C@]4(C)CCC3[C@@]1(C)C2=O (stereo partly drawn) = 0.971 (inactive)
CCC(=O)OCC(=O)[C@@]1(OC(=O)CC)[C@@H](C)CC2C3CCC4=CC(=O)C=C[C@]4(C)C3(F)[C@@H](O)C[C@@]21C (stereo partly drawn) = 1.05 (inactive)

Determine its reported normalized growth: O=C(Nc1cc2ccccc2s1)N1CCN(Cc2c(F)cccc2Cl)CC1
0.853 (active)

Using the record for Oc1ccc2c3c1OC1[C@@H](O)CC[C@@]4(O)[C@@H](C2)N(CC2CCC2)CC[C@]314 (stereo partly drawn) , state its measured normalized growth.
0.971 (inactive)

====

Assay notes: chemical genetic growth profiling, strain panel (AID 1159580);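 further: tested at 20 µM; growth read once vehicle control cultures reached saturation at 30 °C; 1 = growth at the plate median or of vehicle wells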
Measurement setup: S. cerevisiae deletion strains, growth OD, locus YNL209W, strain ssb2, hits give low values
About 2,000 (36%) of roughly 5,500 compounds were called active. Not shown: some 18% with an inconclusive outcome. This is one part of the list.
Exam item: assign 1 to entries whose normalized growth is below 0.9 and 0 to entries at or above 0.9. Note that a value of exactly 0.9 receives 0.

Known results for molecules:
CC(C)C[C@@H](NC(=O)OCC1c2ccccc2-c2ccccc21)C(=O)O = 0
CC[C@@]1(O)C(=O)OCc2c1cc1n(c2=O)Cc2cc3cc(O)ccc3nc2-1 = 0

Turning to the following molecule.
Would you kindly verify if normalized growth of CC(=O)N1CCN(c2ccc(OCC3CO[C@](Cn4ccnc4)(c4ccc(Cl)cc4Cl)O3)cc2)CC1 (some centres undefined) is strictly less than 0.9?
1

These data points were gathered from PubChem BioAssay AID1159580.
